# Tested on: RAT
# test-name: General toxicity, average lethal dose (DL50) in the rat, i.v.
# Format: in vivo
experimental-readout: DL50 (RAT) via i.v. g I/kg

>>> reported("CC(=O)N(CC(O)CN(C(C)=O)c1c(I)c(C(=O)NCC(O)CO)c(I)c(C(=O)NCC(O)CO)c1I)c1c(I)c(C(=O)NCC(O)CO)c(I)c(C(=O)NCC(O)CO)c1I (stereo not shown) [IODIXANOL, Iodixanol, reference compound]")
"> 20 g I/kg"
>>> reported("CN(C(=O)CN(CCO)CC(=O)N(C)c1c(I)c(C(=O)NCC(O)CO)c(I)c(C(=O)NCC(O)CO)c1I)c1c(I)c(C(=O)NCC(O)CO)c(I)c(C(=O)NCC(O)CO)c1I (stereo not shown) [ICJ-1692]")
"> 20 g I/kg"
>>> reported("O=C(CN(CCO)CC(=O)Nc1c(I)c(C(=O)NCC(O)CO)c(I)c(C(=O)NCC(O)CO)c1I)Nc1c(I)c(C(=O)NCC(O)CO)c(I)c(C(=O)NCC(O)CO)c1I (stereo not shown) [ICJ-1192]")
"> 25 g I/kg"
>>> reported("O=C(CN(CCO)CC(=O)Nc1c(I)c(C(=O)NC(CO)C(O)CO)c(I)c(C(=O)NC(CO)C(O)CO)c1I)Nc1c(I)c(C(=O)NCCO)c(I)c(C(=O)NCCO)c1I (stereo not shown) [ICJ-1592]")
"> 20 g I/kg"

----------
List of VISCOSITY 37°C mPa.s 300 mg I/ml values.
# test-name: Viscosity of aqueous solution at 300 mg I/ml
# Format: physicochemical
# test-context: 300 mg I/ml (Table I)
experimental-readout: VISCOSITY 37°C mPa.s 300 mg I/ml (mPa.s)

>>> reported("O=C(CN(CCO)CC(=O)Nc1c(I)c(C(=O)NC(CO)C(O)CO)c(I)c(C(=O)NC(CO)C(O)CO)c1I)Nc1c(I)c(C(=O)NCCO)c(I)c(C(=O)NCCO)c1I (stereo not shown)")
8.4
>>> reported("CC(=O)N(CC(O)CN(C(C)=O)c1c(I)c(C(=O)NCC(O)CO)c(I)c(C(=O)NCC(O)CO)c1I)c1c(I)c(C(=O)NCC(O)CO)c(I)c(C(=O)NCC(O)CO)c1I (stereo not shown) [IODIXANOL, Iodixanol, reference compound]")
8.7
>>> reported("O=C(CN(CCO)CC(=O)Nc1c(I)c(C(=O)NCC(O)CO)c(I)c(C(=O)NCC(O)CO)c1I)Nc1c(I)c(C(=O)NCC(O)CO)c(I)c(C(=O)NCC(O)CO)c1I (stereo not shown)")
9.4
>>> reported("CN(C(=O)CN(CCO)CC(=O)N(C)c1c(I)c(C(=O)NCC(O)CO)c(I)c(C(=O)NCC(O)CO)c1I)c1c(I)c(C(=O)NCC(O)CO)c(I)c(C(=O)NCC(O)CO)c1I (stereo not shown)")
9.3

----------
Recorded OSMOLALITY mOsm/kg at 300 mg I/ml, one value per entry.
# test-name: Osmolality of aqueous solution at 300 mg I/ml
# Assay type: physicochemical
# test-context: 300 mg I/ml (Table II)
experimental-readout: OSMOLALITY mOsm/kg at 300 mg I/ml (mOsm/kg)

>>> reported("CN(C(=O)CN(CCO)CC(=O)N(C)c1c(I)c(C(=O)NCC(O)CO)c(I)c(C(=O)NCC(O)CO)c1I)c1c(I)c(C(=O)NCCO)c(I)c(C(=O)NCCO)c1I (stereo not drawn) [ICJ-2292]")
162
>>> reported("COCCN(CC(=O)N(C)c1c(I)c(C(=O)NCC(O)CO)c(I)c(C(=O)NCC(O)CO)c1I)CC(=O)N(C)c1c(I)c(C(=O)NCC(O)CO)c(I)c(C(=O)NCC(O)CO)c1I (stereo not drawn) [ICJ-2892]")
200
>>> reported("CN(C(=O)CN(CCO)CC(=O)N(C)c1c(I)c(C(=O)NCC(O)CO)c(I)c(C(=O)NCC(O)CO)c1I)c1c(I)c(C(=O)NCC(O)CO)c(I)c(C(=O)NCC(O)CO)c1I (stereo not drawn) [ICJ-1692]")
174

----------
# test-name: physchem
# Format: physicochemical
# test-context: water, 20°C (Table II); read-out: SOLUBILITY IN WATER at 20°
experimental-readout: solubility

>>> reported("CN(C(=O)CN(CCO)CC(=O)N(C)c1c(I)c(C(=O)NCC(O)CO)c(I)c(C(=O)NCC(O)CO)c1I)c1c(I)c(C(=O)NCCO)c(I)c(C(=O)NCCO)c1I (centres unmarked)")
"> 600 mg/mL"
>>> reported("O=C(CN(CC(=O)Nc1c(I)c(C(=O)NCC(O)CO)c(I)c(C(=O)NCC(O)CO)c1I)CC(O)CO)Nc1c(I)c(C(=O)NCCO)c(I)c(C(=O)NCCO)c1I (centres unmarked)")
"< 600 mg/mL"
>>> reported("CN(C(=O)CN(CCO)CC(=O)Nc1c(I)c(C(=O)NCCO)c(I)c(C(=O)NCCO)c1I)c1c(I)c(C(=O)NCC(O)CO)c(I)c(C(=O)NCC(O)CO)c1I (centres unmarked)")
"< 600 mg/mL"
>>> reported("COCCN(CC(=O)N(C)c1c(I)c(C(=O)NCC(O)CO)c(I)c(C(=O)NCC(O)CO)c1I)CC(=O)N(C)c1c(I)c(C(=O)NCC(O)CO)c(I)c(C(=O)NCC(O)CO)c1I (centres unmarked)")
"> 600 mg/mL"
>>> reported("O=C(CN(CCO)CC(=O)Nc1c(I)c(C(=O)NCC(O)CO)c(I)c(C(=O)NCC(O)CO)c1I)Nc1c(I)c(C(=O)NCCO)c(I)c(C(=O)NCCO)c1I (centres unmarked)")
"< 600 mg/mL"

----------
The entries below come with measured OSMOLALITY 37°C mOsm/kg at 300 mg I/ml values attached.
# test-name: Osmolality of aqueous solution at 300 mg I/ml
# Type: physicochemical
# test-context: 37°C, 300 mg I/ml (Table I)
experimental-readout: OSMOLALITY 37°C mOsm/kg at 300 mg I/ml (mOsm/kg)

>>> reported("O=C(CN(CCO)CC(=O)Nc1c(I)c(C(=O)NC(CO)C(O)CO)c(I)c(C(=O)NC(CO)C(O)CO)c1I)Nc1c(I)c(C(=O)NCCO)c(I)c(C(=O)NCCO)c1I (stereo not shown)")
151
>>> reported("CN(C(=O)CN(CCO)CC(=O)N(C)c1c(I)c(C(=O)NCC(O)CO)c(I)c(C(=O)NCC(O)CO)c1I)c1c(I)c(C(=O)NCC(O)CO)c(I)c(C(=O)NCC(O)CO)c1I (stereo not shown)")
174
>>> reported("O=C(CN(CCO)CC(=O)Nc1c(I)c(C(=O)NCC(O)CO)c(I)c(C(=O)NCC(O)CO)c1I)Nc1c(I)c(C(=O)NCC(O)CO)c(I)c(C(=O)NCC(O)CO)c1I (stereo not shown)")
167
>>> reported("CC(=O)N(CC(O)CN(C(C)=O)c1c(I)c(C(=O)NCC(O)CO)c(I)c(C(=O)NCC(O)CO)c1I)c1c(I)c(C(=O)NCC(O)CO)c(I)c(C(=O)NCC(O)CO)c1I (stereo not shown) [IODIXANOL, Iodixanol, reference compound]")
190

----------
# test-name: Viscosity of aqueous solution at 300 mg I/ml
# Format: physicochemical
# test-context: 300 mg I/ml (Table II)
Entries and their measured VISCOSITY mPas (37°C) at 300 mg I/ml follow.
experimental-readout: VISCOSITY mPas (37°C) at 300 mg I/ml (mPas)

>>> reported("COCCN(CC(=O)N(C)c1c(I)c(C(=O)NCC(O)CO)c(I)c(C(=O)NCC(O)CO)c1I)CC(=O)N(C)c1c(I)c(C(=O)NCC(O)CO)c(I)c(C(=O)NCC(O)CO)c1I (centres unmarked) [ICJ-2892]")
10.8
>>> reported("CN(C(=O)CN(CCO)CC(=O)Nc1c(I)c(C(=O)NC(CO)C(O)CO)c(I)c(C(=O)NC(CO)C(O)CO)c1I)c1c(I)c(C(=O)NCCO)c(I)c(C(=O)NCCO)c1I (centres unmarked) [ICJ-1992]")
9.1
>>> reported("COCCN(CC(=O)Nc1c(I)c(C(=O)NCC(O)CO)c(I)c(C(=O)NCC(O)CO)c1I)CC(=O)Nc1c(I)c(C(=O)NCC(O)CO)c(I)c(C(=O)NCC(O)CO)c1I (centres unmarked) [ICJ-2692]")
9.7
>>> reported("CN(C(=O)CN(CCO)CC(=O)N(C)c1c(I)c(C(=O)NCC(O)CO)c(I)c(C(=O)NCC(O)CO)c1I)c1c(I)c(C(=O)NCCO)c(I)c(C(=O)NCCO)c1I (centres unmarked) [ICJ-2292]")
11.0
>>> reported("O=C(CN(CC(=O)Nc1c(I)c(C(=O)NCCO)c(I)c(C(=O)NCCO)c1I)C(CO)C(O)CO)Nc1c(I)c(C(=O)NCCO)c(I)c(C(=O)NCCO)c1I (centres unmarked) [ICJ-2592]")
9.1
